ASSAYED TARGET: T1, mouse IL-2Rγ (mouse) (UniProt P34902)
T1 sequence (looked up): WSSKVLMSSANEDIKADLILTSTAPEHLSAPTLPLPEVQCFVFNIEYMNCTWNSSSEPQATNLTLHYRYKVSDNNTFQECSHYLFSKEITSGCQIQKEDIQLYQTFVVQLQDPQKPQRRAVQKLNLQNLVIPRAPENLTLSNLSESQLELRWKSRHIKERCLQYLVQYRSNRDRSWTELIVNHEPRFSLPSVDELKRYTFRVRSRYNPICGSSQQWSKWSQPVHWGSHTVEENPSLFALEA
METHOD NOTES: PE binding ELISA, periplasmic extract on coated protein
A collection of binders and their measured OD (PE binding ELISA)

Look over these answered cases.
BINDER	OD (PE binding ELISA)
FJ1427_P035MP04D11 (VHH) VHH: EVQLVESGGGLVQAGGSLRLSCAASGRTFGAVAVGWFRQVPGKEREFVAAINRSGSATKYADSVKGRFTISRDNAESPVFLQMNSLKPEDTAVYYCAADSLPYGRPYYFQTSAGEYDYWGQGTQVTVSS	0.048 OD450 nm
FJ1427_P035MP04A10 (VHH) VHH: EVQLVESGGGWVQVGESLRLSCAPSGRTFVSGIMGWFRQAPGKEREFVARIILNNNSTRYTDSVKGRFTISRDSAKNTMYLQMNTLRPEDTAVYYCAARDRYGSGNSLSPSAYDYWGQGTQVTVSS	0.048 OD450 nm
FJ1427_P035MP04F09 (VHH) VHH: QVQLVESGGGWVQVGESLRLSCAPSGRTFVRGIMGWFRQAPGKEREFVARIILNNNSTRYTDSVKGRFTISRDSAKNTMWLQMDSLRPEDTAVYYCAARDRYGSGNSLSPSAYDYWGQGTQVTVSS	0.049 OD450 nm
FJ1427_P035MP04G07 (VHH) VHH: QVQLVESGGGWVQVGESLRLSCAPSGRTFVSGIMGWFRQAPGKEREFVARIILNNNSTRYTDSVKGRFTISRDSAKNTMYLQMNTLRPEDTAVYYCAARDRYGSGNSLSPSAYDYWGQGTQVTVSS	0.049 OD450 nm
FJ1427_P035MP04G03 (VHH) VHH: EVQLVESGGGWVQVGESLRLSCAPSGRTFVSGIMGWFRQAPGKEREFVARIILNNNSTRYTDSVKGRFTISRDSAKNTMYLQMDSLRPEDTAVYYCAARDRYGSGNSLSPSAYDYWGQGTQVTVSS	0.049 OD450 nm
FJ1427_P035MP04G11 (VHH) VHH: QVQLVESGGGWVQVGESLRLSCAPSGRTFVSGIMGWFRQAPGEEREFVARIILNNNSTRYTDSVKGRFTISRDSAKNTMYLQMNTLRPEDTAVYYCAARDRYGSGNSLSPSAYDYWGQGTQVTVSS	0.048 OD450 nm
FJ1427_P035MP04C01 (VHH) VHH: QVQLVESGGGLVQAGGSLTLSCAASGRTFSTDVVGWFRQAPGKEREFVASISRSGDGIYYDDSVKGRFTISRNNAWNTVNLQMNNLKVEDTAVYYCAAGDGWSTYDYWGQGTQVTVSS	0.049 OD450 nm

Data point: FJ1427_P035MP04E12 (VHH) VHH: QLQLVESGGGWVQVGESLRLSCAPSGRTFASGIMGWFRQAPGKEREFVARIILNNNSTRYTDSVKGRFTISRDSAKNTMYLQMNTLRPEDTAVYYCAARDRYGSGNSLSPSAYDYWGQGTQVTVSS ; OD (PE binding ELISA) = 0.051 OD450 nm

Sourced from patent US20240409645A1
